Measured values drawn from PubChem BioAssay (NCI) for this set.

System: DLD-1 colon
Test: NCI tumour cell line growth inhibition, 48 h
measure: TGI

> print(dat)
                                   compound    result
1  COc1cc2c(cc1OC)C(CC(=O)NN=C(C)C)NCC2 (configuration not stated)  > 100 µM
2  COc1cc(C(C)O)c[n+](CCc2c[nH]c3ccccc23)c1 (configuration not stated)  > 100 µM
3  N#CC(NC12CC3CC(CC(C3)C1)C2)c1ccccc1C(F)(F)F (configuration not stated)  > 100 µM
4              NC(N)=N/N=C/c1c[nH]c2ccccc12  > 100 µM
5  C1=CC2SSSC2C1 (configuration not stated)  > 100 µM
6  O=C(O)C1OC(n2cc(F)c(=O)[nH]c2=O)CC1O (configuration not stated)  > 100 µM

We now examine a further compound.
// map CC1NC(=O)CC(c2ccccc2)N(N=O)C1c1ccccc1 (configuration not stated) to recorded TGI (system: DLD-1 colon)
> 100 µM

----------
The following compounds are shown together with reported TGI values.
Test system: NCI-H460 lung
Assay: NCI tumour cell line growth inhibition, 48 h

Below, each entry is followed by its recorded TGI result.
> print(dat)
                                   compound    result
1  C[C@@H]1CC(=O)C2CCCC1C2=O (some centres not stated)  > 100 µM
2                  COCN(CCC1=CCCCC1)C(=O)OC  > 100 µM
3       COC(=O)[C@H](C)NC(=O)NC(=O)NC(=O)CI   40.8 µM

Report TGI for CCOP(C)(=O)C(N)Cc1ccc(OC)c(OC)c1 (configuration not stated) please.
> 100 µM

Then this compound: Cc1ccc(N=Nc2c(O)ccc3cc(S(=O)(=O)O)cc(S(=O)(=O)O)c23)cc1
> 100 µM

Same read-out for CC(=O)/C(C)=N/NC(=O)c1ccccc1O ?
> 100 µM

Then this compound: Cc1cc(C(=O)Nc2ncc(Cc3cccc(C(F)(F)F)c3)s2)c2ccccc2n1
> 100 µM

Also, CN1CCN(CCCOc2ccc3nc(Nc4ccc(Cl)c(C(F)(F)F)c4)ccc3c2)CC1 please.
39.1 µM

Another compound: CCOC(=O)/C=C(/C(=O)OCC)n1ccc(=O)n(Cc2cn(COCCOC(C)=O)nn2)c1=O
29 µM

And COC1=CC(=O)c2nc(-c3cccc(C)n3)[nH]c2C1=O ?
35.2 µM

Same again, this time with COC(C(O)CO)C(O)C(O)C(=O)NNc1ccccc1 (configuration not stated)
> 100 µM

Now this one: COc1ccccc1CNCCCN1C(=O)c2ccc3c4c(ccc(c24)C1=O)C(=O)N(CCCOCCCCOCCCN)C3=O
2.17 µM

----------
System: SN12C renal
Assay: NCI tumour cell line growth inhibition, 48 h
measure: TGI

Tell me the measured TGI of C=CCCN1CCc2c([nH]c3ccccc23)C1C(=O)O (stereo not given) , please.
> 100 µM

Queued: O=C1CC(=Nc2ccc(Cl)cc2)C(c2ccccc2)N1c1ccccc1 (stereo not given)
> 100 µM

Next entry: O=C(N/N=C\c1cccc2c([N+](=O)[O-])cccc12)Nc1ccccc1
18.9 µM

Let us now turn to CCOC(=O)C(=Cc1[nH]c2ccccc2c1-c1c[nH]c2ccccc12)C(=O)OCC
29.4 µM

What would you report for Cn1c(=O)c(C(c2ccc([N+](=O)[O-])cc2)c2c(O)c3ccccc3n(C)c2=O)cc2ccccc21 (stereo not given) ?
> 100 µM

Lookup Cc1nc(N)sc1C(=O)/C=C\c1ccc2c(c1)OCO2
> 100 µM
